- tested.system: peptidyldipeptidase A (ACE) (Homo sapiens, UniProt P12821)
- Sequence (P12821 30-1306, species assumed): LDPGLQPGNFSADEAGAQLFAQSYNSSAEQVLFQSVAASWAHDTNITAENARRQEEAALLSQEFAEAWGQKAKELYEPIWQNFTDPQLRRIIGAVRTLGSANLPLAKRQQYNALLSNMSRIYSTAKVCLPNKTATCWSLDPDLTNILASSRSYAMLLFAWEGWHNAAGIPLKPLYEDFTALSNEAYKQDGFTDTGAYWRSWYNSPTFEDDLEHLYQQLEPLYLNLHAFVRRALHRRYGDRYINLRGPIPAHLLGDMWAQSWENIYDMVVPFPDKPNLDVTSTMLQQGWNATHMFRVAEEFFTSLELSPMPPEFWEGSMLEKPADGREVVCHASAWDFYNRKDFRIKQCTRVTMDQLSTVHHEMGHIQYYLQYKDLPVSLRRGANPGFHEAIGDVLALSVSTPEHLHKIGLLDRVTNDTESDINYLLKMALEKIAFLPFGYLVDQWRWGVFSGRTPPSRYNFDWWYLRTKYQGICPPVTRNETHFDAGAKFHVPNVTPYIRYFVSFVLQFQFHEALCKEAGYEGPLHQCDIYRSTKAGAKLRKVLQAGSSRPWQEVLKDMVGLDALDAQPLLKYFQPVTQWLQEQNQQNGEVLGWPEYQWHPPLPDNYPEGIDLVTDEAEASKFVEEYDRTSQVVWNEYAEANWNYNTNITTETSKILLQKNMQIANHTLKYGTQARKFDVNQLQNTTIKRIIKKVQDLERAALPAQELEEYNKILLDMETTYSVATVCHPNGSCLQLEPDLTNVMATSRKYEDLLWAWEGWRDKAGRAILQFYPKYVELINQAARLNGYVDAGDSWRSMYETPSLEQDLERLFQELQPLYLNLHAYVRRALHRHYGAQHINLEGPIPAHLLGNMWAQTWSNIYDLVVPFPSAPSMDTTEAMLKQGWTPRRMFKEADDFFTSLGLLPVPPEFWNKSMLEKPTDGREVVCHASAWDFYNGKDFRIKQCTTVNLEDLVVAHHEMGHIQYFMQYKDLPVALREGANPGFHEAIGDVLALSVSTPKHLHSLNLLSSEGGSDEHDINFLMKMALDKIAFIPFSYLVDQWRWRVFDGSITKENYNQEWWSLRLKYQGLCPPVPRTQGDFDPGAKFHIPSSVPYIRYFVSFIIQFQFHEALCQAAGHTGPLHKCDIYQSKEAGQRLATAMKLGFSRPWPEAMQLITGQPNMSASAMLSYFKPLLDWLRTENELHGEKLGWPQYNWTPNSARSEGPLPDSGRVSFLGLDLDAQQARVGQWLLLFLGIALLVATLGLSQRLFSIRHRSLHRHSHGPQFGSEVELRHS
- test: Enzymatic inhibition of peptidyldipeptidase A, Z-Phe-His-Leu as substrate
- Format: biochemical
- reported.conditions: Table IV
# strict inequality: IC50 < 8 nM yields Satisfied, everything else yields Not satisfied

{"compound": "CC(c1ccccc1)C(CS)C(=O)N[C@@H](COCc1ccccc1)C(=O)O (stereo partly drawn)", "tested.system": "peptidyldipeptidase A (ACE) (Homo sapiens, UniProt P12821)", "class.name": "Not satisfied"}
{"compound": "CC(c1ccccc1)C(CSS)C(=O)N[C@@H](Cc1ccc(O)cc1)C(=O)O (stereo partly drawn) [88(B)]", "tested.system": "peptidyldipeptidase A (ACE) (Homo sapiens, UniProt P12821)", "class.name": "Not satisfied"}
{"compound": "CC(c1ccccc1)C(CS)C(=O)N[C@@H](Cc1ccc(O)cc1)C(=O)O (stereo partly drawn)", "tested.system": "peptidyldipeptidase A (ACE) (Homo sapiens, UniProt P12821)", "class.name": "Satisfied"}
{"compound": "CC(c1ccccc1)C(CS)C(=O)NCC(=O)O (stereo not drawn)", "tested.system": "peptidyldipeptidase A (ACE) (Homo sapiens, UniProt P12821)", "class.name": "Not satisfied"}
{"compound": "CC(c1ccc(F)c(F)c1)C(CS)C(=O)N[C@@H](C)C(=O)O (stereo partly drawn)", "tested.system": "peptidyldipeptidase A (ACE) (Homo sapiens, UniProt P12821)", "class.name": "Satisfied"}
{"compound": "CC(=O)SCC(C(=O)N[C@@H](C)C(=O)O)C(C)c1ccc(F)cc1 (stereo partly drawn)", "tested.system": "peptidyldipeptidase A (ACE) (Homo sapiens, UniProt P12821)", "class.name": "Not satisfied"}
{"compound": "CC(c1ccc(F)c(F)c1)C(CS)C(=O)N[C@@H](Cc1ccc(O)cc1)C(=O)O (stereo partly drawn)", "tested.system": "peptidyldipeptidase A (ACE) (Homo sapiens, UniProt P12821)", "class.name": "Satisfied"}
{"compound": "CC(c1ccc(O)cc1)C(CS)C(=O)N[C@@H](Cc1ccc(O)cc1)C(=O)O (stereo partly drawn)", "tested.system": "peptidyldipeptidase A (ACE) (Homo sapiens, UniProt P12821)", "class.name": "Satisfied"}

* * *

- tested.system: peptidyldipeptidase A (ACE) (Homo sapiens, UniProt P12821)
- test: Enzymatic inhibition of peptidyldipeptidase A, Z-Phe-His-Leu as substrate
- Format: biochemical
- reported.conditions: Table III

{"compound": "CC(C)C[C@H](NC(=O)C(S)Cc1ccccc1)C(=O)N[C@@H](Cc1ccc(O)cc1)C(=O)O (stereo partly shown) [Example 23, N-(2-Mercapto-3-phenylpropanoyl)-Leu-Tyr]", "IC50, nM": 30}
{"compound": "CC(C)C(NC(=O)C(S)CCc1ccccc1)C(=O)N[C@@H](Cc1ccc(O)cc1)C(=O)O (stereo partly shown) [Example 26, N-(2-Mercapto-4-phenylbutanoyl)-Val-Tyr]", "IC50, nM": 8}
{"compound": "CCC(C)C(NC(=O)C(S)Cc1ccccc1)C(=O)N1CCCCC1C(=O)O (stereo not shown) [Example 21, N-(2-Mercapto-3-phenylpropanoyl)-Ile-Pip]", "IC50, nM": 2}
{"compound": "CC(C)[C@H](NC(=O)C(S)Cc1ccccc1)C(=O)N[C@@H](Cc1ccc(O)cc1)C(=O)O (stereo partly shown) [Example 19, N-(2-Mercapto-3-phenylpropanoyl)-Val-Tyr]", "IC50, nM": 4}
{"compound": "CC[C@H](C)[C@H](NC(=O)C(S)c1ccccc1)C(=O)N[C@@H](Cc1ccc(O)cc1)C(=O)O (stereo partly shown) [Example 28, N-(2-Mercapto-2-phenylacetyl)-Ile-Tyr]", "IC50, nM": 3.5}
{"compound": "CCC(C)C(S)C(=O)NC(C(=O)N[C@@H](Cc1ccc(O)cc1)C(=O)O)C(C)C (stereo partly shown) [Example 25, N-(2-Mercapto-3-methylpentanoyl)-Val-Tyr]", "IC50, nM": 2}
{"compound": "CC[C@H](C)[C@H](NC(=O)C(S)C(C)C)C(=O)N[C@@H](Cc1ccc(O)cc1)C(=O)O (stereo partly shown) [Example 27, N-(2-Mercapto-3-methylbutanoyl)-Ile-Tyr]", "IC50, nM": 0.3}
{"compound": "CC[C@H](C)[C@H](NC(=O)C(S)Cc1ccccc1)C(=O)N[C@@H](Cc1ccc(O)cc1)C(=O)OC (stereo partly shown) [Example 20]", "IC50, nM": 2.5}
{"compound": "CCC(C)C(S)C(=O)N[C@@H](Cc1ccccc1)C(=O)N[C@@H](Cc1ccc(O)cc1)C(=O)O (stereo partly shown) [Example 24, N-(2-Mercapto-3-methylpentanoyl)-Phe-Tyr]", "IC50, nM": 8}
{"compound": "CCCC[C@H](NC(=O)C(S)Cc1ccccc1)C(=O)N[C@@H](Cc1ccc(O)cc1)C(=O)O (stereo partly shown) [Example 22, N-(2-Mercapto-3-phenylpropanoyl)-Nle-Tyr]", "IC50, nM": 30}
